- target_system: Epidermal growth factor receptor (Homo sapiens, UniProt P00533)
- Sequence (P00533 whole entry): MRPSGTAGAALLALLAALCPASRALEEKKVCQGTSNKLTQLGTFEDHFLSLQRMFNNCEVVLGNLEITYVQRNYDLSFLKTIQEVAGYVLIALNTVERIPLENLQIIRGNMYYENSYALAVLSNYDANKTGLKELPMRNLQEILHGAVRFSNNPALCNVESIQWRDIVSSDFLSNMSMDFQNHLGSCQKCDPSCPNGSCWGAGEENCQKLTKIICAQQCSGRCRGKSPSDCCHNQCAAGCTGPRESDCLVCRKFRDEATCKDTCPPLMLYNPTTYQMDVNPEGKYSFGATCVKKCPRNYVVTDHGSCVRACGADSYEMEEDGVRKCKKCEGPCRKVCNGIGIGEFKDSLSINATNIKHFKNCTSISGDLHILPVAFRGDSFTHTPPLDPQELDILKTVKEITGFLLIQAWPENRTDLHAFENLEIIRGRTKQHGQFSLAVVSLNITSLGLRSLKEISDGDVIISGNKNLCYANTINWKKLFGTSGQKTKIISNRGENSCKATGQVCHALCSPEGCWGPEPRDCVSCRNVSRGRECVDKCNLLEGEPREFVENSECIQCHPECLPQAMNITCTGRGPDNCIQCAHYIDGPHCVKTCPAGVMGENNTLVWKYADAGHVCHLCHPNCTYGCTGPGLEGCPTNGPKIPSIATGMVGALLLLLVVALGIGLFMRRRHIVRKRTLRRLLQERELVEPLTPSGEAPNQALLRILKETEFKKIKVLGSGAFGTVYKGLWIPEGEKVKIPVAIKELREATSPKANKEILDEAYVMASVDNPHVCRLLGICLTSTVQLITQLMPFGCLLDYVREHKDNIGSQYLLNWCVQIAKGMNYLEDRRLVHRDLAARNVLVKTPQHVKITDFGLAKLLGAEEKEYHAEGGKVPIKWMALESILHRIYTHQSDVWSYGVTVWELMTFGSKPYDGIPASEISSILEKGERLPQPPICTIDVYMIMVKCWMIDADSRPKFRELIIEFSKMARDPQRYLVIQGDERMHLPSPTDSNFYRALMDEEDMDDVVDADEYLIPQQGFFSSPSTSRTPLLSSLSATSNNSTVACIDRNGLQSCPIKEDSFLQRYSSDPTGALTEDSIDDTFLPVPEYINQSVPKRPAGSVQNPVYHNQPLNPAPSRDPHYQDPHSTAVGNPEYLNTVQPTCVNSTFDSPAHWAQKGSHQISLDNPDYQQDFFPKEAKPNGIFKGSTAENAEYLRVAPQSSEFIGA
- run_description: Inhibition of EGFR kinase autophosphorylation in A431 cells
readout_label: IC50

[Q] Recorded IC50 for "N#Cc1cnc2cnc(NCc3cccnc3)cc2c1NC1CC1" , please?
[A] > 40 µM

[Q] Recorded IC50 for "CC(C)(C)Nc1c(C#N)cnc2cnc(NCc3cccnc3)cc12" , please?
[A] > 40 µM

[Q] Recorded IC50 for "N#Cc1cnc2cnc(NCc3cccnc3)cc2c1Nc1ccccc1" , please?
[A] < 5 µM

[Q] Recorded IC50 for "N#Cc1cnc2cnc(NCc3cccnc3)cc2c1NC1CCCCC1" , please?
[A] > 40 µM

[Q] Recorded IC50 for "N#Cc1cnc2cnc(NCc3cccnc3)cc2c1NC1CCCCCC1" , please?
[A] > 20 µM

[Q] Recorded IC50 for "CCC(C)(C)Nc1c(C#N)cnc2cnc(NCc3cccnc3)cc12" , please?
[A] > 40 µM

[Q] Recorded IC50 for "N#Cc1cnc2cnc(NCc3cccnc3)cc2c1NC1CCCC1" , please?
[A] > 40 µM

* * *

- run_description: Inhibition of Tpl2 kinase assessed as MEK phosphorylation by ELISA
- Parameters: species or system Homo sapiens
I'd appreciate it if you could supply log10 IC50 values for the items below.
Each number you see is log10 of IC50, and the unit inside the log is µM.

[Q] Recorded log10 IC50 for "C[C@@H](Nc1cc2c(Nc3ccc(F)c(Cl)c3)c(C#N)cnc2cn1)c1ccccc1" , please?
[A] -1.30

[Q] Recorded log10 IC50 for "CC(C)(C)Nc1c(C#N)cnc2ccc(NCc3cccc(S(C)(=O)=O)c3)cc12" , please?
[A] 0.46

[Q] Recorded log10 IC50 for "N#Cc1cnc2cnc(NCc3cccnc3)cc2c1NC1CCCC1" , please?
[A] -0.49

[Q] Recorded log10 IC50 for "N#Cc1cnc2ccc(NCc3cccnc3)cc2c1NC1CCCC1" , please?
[A] 0.38

[Q] Recorded log10 IC50 for "N#Cc1cnc2cnc(NCCN3CCOCC3)cc2c1Nc1cccc(I)c1" , please?
[A] 0.85

[Q] Recorded log10 IC50 for "N#Cc1cnc2cnc(NCCN3CCOCC3)cc2c1Nc1ccc(F)cc1" , please?
[A] 1.03

[Q] Recorded log10 IC50 for "N#Cc1cnc2cnc(NCc3cccnc3)cc2c1NC1CCCCCC1" , please?
[A] -0.80

[Q] Recorded log10 IC50 for "N#Cc1ccccc1CNc1ccc2ncc(C#N)c(NC3CCCC3)c2c1" , please?
[A] 0.23

[Q] Recorded log10 IC50 for "CC(C)(C)Nc1c(C#N)cnc2cnc(NCc3cccnc3)cc12" , please?
[A] -0.20

[Q] Recorded log10 IC50 for "CS(=O)(=O)c1cccc(CNc2ccc3ncc(C#N)c(NC4CCCC4)c3c2)c1" , please?
[A] 0.46

[Q] Recorded log10 IC50 for "N#Cc1cnc2cnc(NCCN3CCOCC3)cc2c1Nc1cccc(Oc2ccccc2)c1" , please?
[A] 1.06

[Q] Recorded log10 IC50 for "N#Cc1cnc2cnc(NCCN3CCOCC3)cc2c1Nc1ccc(Oc2ccccc2)cc1" , please?
[A] -0.42

[Q] Recorded log10 IC50 for "CC(C)(C)Nc1c(C#N)cnc2ccc(NCc3cccc[n+]3[O-])cc12" , please?
[A] 0.11

[Q] Recorded log10 IC50 for "N#Cc1cnc2ccc(NCc3ccc(S(N)(=O)=O)cc3)cc2c1NC1CCCC1" , please?
[A] 0.86

[Q] Recorded log10 IC50 for "N#Cc1cnc2ccc(NCc3ccccc3)cc2c1NC1CCCC1" , please?
[A] 1.32

[Q] Recorded log10 IC50 for "N#Cc1cnc2cnc(NCCN3CCOCC3)cc2c1Nc1ccc(F)c(F)c1" , please?
[A] 0.56

[Q] Recorded log10 IC50 for "N#Cc1cnc2cnc(NC3CCCCCC3)cc2c1Nc1ccc(F)c(Cl)c1" , please?
[A] 0.72

[Q] Recorded log10 IC50 for "CC(C)(C)Nc1c(C#N)cnc2ccc(NCc3ccc(S(N)(=O)=O)cc3)cc12" , please?
[A] 0.86

* * *

- run_description: Inhibition of Tpl2 kinase assessed as MEK phosphorylation by ELISA
- Parameters: species or system Homo sapiens
pIC50: −log10 of the molar value.
# binarize pIC50: threshold 6 inclusive, high side true, low side false

[Q] State whether the measured pIC50 reaches 6, counting equality as reaching it, for "CCC(C)(C)Nc1c(C#N)cnc2cnc(NCc3cccnc3)cc12"
[A] true

[Q] State whether the measured pIC50 reaches 6, counting equality as reaching it, for "Cn1ccnc1CNc1ccc2ncc(C#N)c(NC(C)(C)C)c2c1"
[A] false

[Q] State whether the measured pIC50 reaches 6, counting equality as reaching it, for "N#Cc1cnc2cnc(NC3CCCC3)cc2c1Nc1ccc(F)c(Cl)c1"
[A] false

[Q] State whether the measured pIC50 reaches 6, counting equality as reaching it, for "N#Cc1cnc2ccc(NCCN3CCOCC3)cc2c1Nc1ccc(Oc2ccccc2)cc1"
[A] true

[Q] State whether the measured pIC50 reaches 6, counting equality as reaching it, for "N#Cc1cnc2cnc(NCc3cccnc3)cc2c1NC1CC1"
[A] false

[Q] State whether the measured pIC50 reaches 6, counting equality as reaching it, for "N#Cc1cnc2cnc(NCc3cccnc3)cc2c1Nc1ccc(F)c(Cl)c1"
[A] true

[Q] State whether the measured pIC50 reaches 6, counting equality as reaching it, for "N#Cc1cnc2cnc(NCc3cccnc3)cc2c1NC1CCCCC1"
[A] true

[Q] State whether the measured pIC50 reaches 6, counting equality as reaching it, for "N#Cc1cnc2cnc(NCCN3CCOCC3)cc2c1Nc1ccc([N+](=O)[O-])cc1"
[A] false

[Q] State whether the measured pIC50 reaches 6, counting equality as reaching it, for "N#Cc1cnc2ccc(NCc3ccn[nH]3)cc2c1NC1CCCC1"
[A] false

* * *

readout_label: IC50
Write the quantity with the unit trailing the number.

[Q] Which measured IC50 belongs to "N#Cc1cnc2cnc(NCc3cccnc3)cc2c1NC1CCCCCC1" , tested on Proto-oncogene tyrosine-protein kinase Src (Homo sapiens)?
[A] 38 µM

* * *

- run_description: Inhibition of S6 kinase
- Parameters: species or system Homo sapiens
pIC50: −log10 of the molar value.
readout_label: pIC50

[Q] Recorded pIC50 for "N#Cc1cnc2ccc(NCc3c[nH]cn3)cc2c1Nc1ccc(F)c(Cl)c1" , please?
[A] < 5.00

[Q] Recorded pIC50 for "N#Cc1cnc2cnc(NCc3cccnc3)cc2c1NC1CCCCCC1" , please?
[A] < 4.40

* * *

- run_description: Clearance in Sprague-Dawley rat
- Type: ADME, organism-based
- conditions: in vivo
I'd appreciate it if you could supply clearance values for the items below.
Please give a number only; it is taken to be in mL/min/kg.

[Q] Recorded clearance for "CC(C)(C)Nc1c(C#N)cnc2cnc(NCc3cccnc3)cc12" , please?
[A] 50

[Q] Recorded clearance for "N#Cc1cnc2ccc(NCc3c[nH]cn3)cc2c1Nc1ccc(F)c(Cl)c1" , please?
[A] 97

[Q] Recorded clearance for "N#Cc1cnc2cnc(NCc3cccnc3)cc2c1NC1CCCC1" , please?
[A] 28

[Q] Recorded clearance for "N#Cc1cnc2cnc(NCc3cccnc3)cc2c1NC1CCCCCC1" , please?
[A] 30

* * *

- run_description: Inhibition of Tpl2 kinase assessed as MEK phosphorylation by ELISA
- Parameters: species or system Homo sapiens
I'd appreciate it if you could supply IC50 values for the items below.
Please give a number only; it is taken to be in nM.

[Q] Recorded IC50 for "N#Cc1cnc2ccc(NCc3cccnc3)cc2c1Nc1ccc(F)c(Cl)c1" , please?
[A] 18

[Q] Recorded IC50 for "N#Cc1cnc2cnc(NCc3cccnc3)cc2c1Nc1ccccc1" , please?
[A] 400

[Q] Recorded IC50 for "CC(C)(C)Nc1c(C#N)cnc2ccc(NCc3cccc(C#N)c3)cc12" , please?
[A] 1700

* * *

I'd appreciate it if you could supply pIC50 values for the items below.
- run_description: Inhibition of Tpl2 kinase assessed as MEK phosphorylation by ELISA
- Design: species or system Homo sapiens
pIC50: −log10 of the molar value.

[Q] Recorded pIC50 for "C[C@H](Nc1cc2c(N(C)C3CCCCCC3)c(C#N)cnc2cn1)c1ccccc1" , please?
[A] < 4.40

[Q] Recorded pIC50 for "N#Cc1cnc2cnc(NCCN3CCOCC3)cc2c1Nc1ccc(Nc2ccccc2)cc1" , please?
[A] 5.12

[Q] Recorded pIC50 for "N#Cc1cnc2cnc(NCCN3CCOCC3)cc2c1Nc1cccc(C(=O)O)c1" , please?
[A] < 5.00

* * *

- run_description: Inhibition of Tpl2 kinase assessed as MEK phosphorylation by ELISA
- Design: species or system Homo sapiens
I'd appreciate it if you could supply IC50 values for the items below.

[Q] Recorded IC50 for "N#Cc1cnc2cnc(NCc3cccnc3)cc2c1NC1CCNCC1" , please?
[A] > 40 µM

[Q] Recorded IC50 for "CS(=O)(=O)Nc1cccc(Nc2c(C#N)cnc3cnc(NCCN4CCOCC4)cc23)c1" , please?
[A] > 10 µM

[Q] Recorded IC50 for "N#Cc1cnc2cnc(NCCN3CCOCC3)cc2c1Nc1cccc(C(N)=O)c1" , please?
[A] > 10 µM

[Q] Recorded IC50 for "CC(C)(C)Nc1cc2c(Nc3ccc(F)c(Cl)c3)c(C#N)cnc2cn1" , please?
[A] > 40 µM

These data points were gathered from ChEMBL document CHEMBL1149691.
